The entries below are paired with their reported solubility kinetic.
test-context: buffer; pH 7.4; 200.0 µM
metric-name: solubility kinetic

>>> print(df.to_string())
                                    compound         metric_name             val
 0       O=C(COC(=O)c1c(F)cccc1Cl)NCC1CCCCC1  solubility kinetic    0.0409 mg/mL
 1             O=S(=O)(Nc1ccc(F)cc1)N1CCOCC1  solubility kinetic   > 0.039 mg/mL
 2  CC(=O)N[C@@H](Cc1c[nH]c2ccccc12)C(=O)OCc1cc(C(F)(F)F)cc(C(F)(F)F)c1  solubility kinetic    0.0034 mg/mL
 3  Cl.OC(c1ccc(Cl)cc1)C(CN1CCOCC1)c1ccccc1 (stereo unspecified)  solubility kinetic  > 0.0552 mg/mL
 4            O=C(O)CCN=Cc1c(O)c2ccccc2oc1=O  solubility kinetic  > 0.0392 mg/mL
 5  O=C(c1ccccc1)N1CCN(S(=O)(=O)N2CCOCC2)CC1  solubility kinetic     0.046 mg/mL
 6  COn1c(=O)c(-c2ccc(F)cc2)[n+]([O-])c2ccccc21  solubility kinetic  > 0.0429 mg/mL
 7    COCc1cc(=O)[nH]c(-c2ccccc2OC(F)(F)F)n1  solubility kinetic   > 0.045 mg/mL
 8   COc1cccc(CC2(CO)CCN(Cc3cn(C)nc3C)CC2)c1  solubility kinetic  > 0.0515 mg/mL
 9  CC1CN(S(=O)(=O)c2cc(C(=O)NCCCN3CCCC3=O)ccc2Cl)CC(C)O1 (stereo unspecified)  solubility kinetic  > 0.0687 mg/mL
10  O=C(NCCCn1ccnc1)/C(=C/c1ccco1)NC(=O)c1ccco1  solubility kinetic  > 0.0532 mg/mL

====

test-context: buffer; pH 7.4; 200.0 µM
Cut-off 6 µg/mL on solubility kinetic, inclusive. At or above means 1.0; below means 0.0.

In [3]: df
Out[3]:
                                    compound  qualitative_label
 0        Cc1cccc(N2C(=O)c3ccc(Br)cc3C2=O)n1                1.0
 1        O=[N+]([O-])c1cc(/C=N/N2CCOCC2)cs1                1.0
 2  CC1=C(C(=O)NCc2ccc(Cl)cc2)C2(CCC(C)CC2)OC1=O (stereo not drawn)                0.0
 3  CCOc1ccc(NC(=O)NC2CCCc3ccccc32)cc1 (stereo not drawn)                0.0
 4       Cc1ccc(Cn2c(=S)[nH]c3ccccc3c2=O)cc1                0.0
 5  CC(C)C(C(=O)Nc1ccccc1F)N1C(=O)c2ccccc2C1=O (stereo not drawn)                1.0
 6        Cc1ccc(C(=O)NCC(=O)NCCCc2ccccc2)s1                1.0
 7                COn1c(C)c(C)c2c3nonc3ccc21                1.0
 8  CCCCCC(=O)Nc1ccc(S(=O)(=O)Nc2nccc(C)n2)cc1                1.0
 9       Nc1ncc(CCN2CCOCC2)c(-c2ccc(F)cc2)n1                1.0
10     CC(C)(C)c1ccc(Cn2c(=O)cnc3ccccc32)cc1                0.0
11     COc1ccc(CCNC(=O)C(=O)NCC2CCNCC2)cc1OC                1.0
12     Cc1nc2ccccn2c1C(=O)C(=O)Nc1cc(F)ccc1F                0.0
13        COc1cc(S(=O)(=O)NCCCn2ccnc2)ccc1Cl                1.0
14     Nc1cc(N)nc(SCC(=O)Nc2ccc3c(c2)OCO3)n1                1.0
15     O=C(O)c1cc(-c2ccccc2Cl)n(-c2ccccc2)n1                1.0
16          O=C(Nc1cccc(Cl)c1N1CCCC1)c1ccco1                0.0
17        O=[N+]([O-])c1ccc(Cl)cc1NCc1cccnc1                1.0
18           O=S(=O)(Nc1ccccc1)c1cccc2nsnc12                1.0
19     COc1ccc2oc(=O)c(C(=O)Nc3ccccc3C)cc2c1                0.0
20     CCOc1ccc(C(=O)CCC(=O)Nc2ccc(C)cn2)cc1                0.0
21  Cc1ccc(C(=O)NC(C)c2ccc(-n3ccnc3)cc2)o1 (stereo not drawn)                1.0
22  CC(Oc1cccc(Cl)c1)C(=O)NCc1ccc(S(N)(=O)=O)cc1 (stereo not drawn)                1.0
23            Cc1ccc(O)c(CNc2cnc3ccccc3c2)c1                1.0
24  Cc1ccc(Nc2c([N+](=O)[O-])ccc3nonc23)c(C)c1                0.0
25  CC1CN(c2ccccc2)c2nc3c(c(=O)[nH]c(=O)n3C)n2C1 (stereo not drawn)                1.0
26  N/C(=N\OC(=O)c1ccc(Cl)c([N+](=O)[O-])c1)c1ccccc1                1.0
27  O=C(NC1CCCCC1)c1cc(S(=O)(=O)N2CCN(c3ccccc3)CC2)ccc1Cl                0.0
28  CN(C(=O)CC1C(=O)NCCN1Cc1ccc(F)cc1)C1CCOCC1 (stereo not drawn)                1.0
29          O=[N+]([O-])c1cccnc1Oc1ccc(F)cc1                1.0
30      CN(C)c1ccc(NC(=O)Cc2ccccc2)c2ccccc12                0.0
31  CN(C(=O)Nc1ccccc1)C1CCCc2ccccc21 (stereo not drawn)                1.0
32  CCC1CCCCN1S(=O)(=O)c1ccc([N+](=O)[O-])cc1 (stereo not drawn)                1.0
33     Cc1cc(Cl)c(Cl)cc1S(=O)(=O)NCCCn1ccnc1                1.0
34               Cc1cc(NCC2CCCCC2)nc2ccccc12                1.0
35       COc1ccc(Nc2cc(C)nc3c(C)cccc23)cc1OC                1.0
36            O=[N+]([O-])c1cccc2c(Cl)ccnc12                1.0
37  COc1ccc(C2(c3ccc(OC)cc3)NC(=O)N(CC(=O)Nc3cc(C)on3)C2=O)cc1                1.0
38  CC1CN(C(C)C)C(C)CC1OC(=O)c1ccccc1 (stereo not drawn)                1.0
39  Cc1ccc(C(OC(=O)c2ccco2)C(=O)NC(C)(C)C)cc1 (stereo not drawn)                1.0
40           COc1ccccc1CNC(=O)COC(=O)c1cccs1                1.0
41  O=C(Oc1ccc2c(c1)O/C(=C\c1ccncc1)C2=O)c1cccs1                0.0
42           O=C(CSc1cccc[n+]1[O-])NC1CCCCC1                1.0
43        CC(C)NC(=O)N1CCC(c2nc3ccccc3s2)CC1                1.0
44    N/C(=N\OC(=O)COc1ccc2ccccc2c1)c1ccncc1                1.0
45  O=[N+]([O-])c1ccc(OCCCOc2cccc3cccnc23)cc1                0.0
46  COc1ccc(CCNC(=O)C2CCC(=O)N2S(=O)(=O)c2ccc(C)cc2)cc1 (stereo not drawn)                1.0
47  O=C(c1cccc([N+](=O)[O-])c1)N1CCN(C/C=C/c2ccccc2)CC1                1.0

====

test-context: buffer; pH 7.4; 200.0 µM
Rule: condition met for solubility kinetic not less than 20 µg/mL, condition not met for anything less.

>>> print(df.to_string())
                                    compound  qualitative_label
 0  CC1CN(C(=S)Nc2ccc(F)cc2F)CC(C)O1 (stereo not given)      condition met
 1  O=S(=O)(Nc1cccc(S(=O)(=O)N2CCCCCC2)c1)c1ccc(F)cc1F      condition met
 2  Cc1ccc(NC(=O)C2CCCN2C(=O)c2cccs2)c(C)c1 (stereo not given)      condition met
 3       O=S(=O)(Nc1cc(F)ccc1F)c1cccc2nonc12      condition met
 4  CC(C)(C)CN1CCN(CCCc2ccccc2)C(CCO)C1 (stereo not given)      condition met
 5          COc1ccccc1CNC(=O)COC(=O)c1ccncc1      condition met
 6        O=C(NCCCCNC(=O)c1ccccc1F)c1ccccc1F      condition met
 7        Cc1cc2cccc(C)c2nc1SCC(=O)NC1CCCCC1  condition not met
 8               O=C(NCCc1ccc(Cl)cc1)c1cccs1      condition met
 9  CCCC(C)NC(=O)c1ccccc1SC (stereo not given)      condition met
10  O=C(Nc1ccccc1)/C(=C\c1ccco1)NC(=O)c1ccco1      condition met
11  O=C1N=C(N2CCc3ccccc3C2)S/C1=C\c1ccc(O)cc1  condition not met
12  Cl.OC(CNCc1cccnc1)COc1ccc2ccccc2c1 (stereo not given)      condition met
13          CC(C)c1ccc(Nc2nc(Cl)nc(Cl)n2)cc1      condition met
14    Cc1ccc(/C=C/C(=O)OCC(=O)Nc2cccnc2Cl)o1  condition not met
15  COc1ccccc1NS(=O)(=O)c1cccc(C(=O)N2CCCC2)c1      condition met
16  CC(C)(CO)CNC1CCCN(C2Cc3ccccc3C2)C1 (stereo not given)      condition met
17               COc1ccc(C)cc1NC(=S)N1CCOCC1      condition met
18  Cc1ccccc1SCC(=O)OCC(=O)N1CC(=O)Nc2ccccc21  condition not met
19            O=C(Cc1ccc(Cl)cc1Cl)NC1CCCCCC1  condition not met
20         CC(=O)N(c1nc(CCl)cs1)c1cccc(C)c1C      condition met
21  CCN(CC(=O)Nc1ccccc1OC)Cc1csc(CC(=O)Nc2ccc(C)cc2)n1  condition not met
22     Cc1ccc(S(=O)(=O)NCC(=O)OCc2ccccc2)cc1      condition met
23  COc1cc(OC)cc(C(=O)N[C@H](C(=O)OCC(=O)c2ccc(C)c([N+](=O)[O-])c2)C(C)C)c1      condition met
24  Cc1ccc(NS(=O)(=O)c2cccc([N+](=O)[O-])c2)nc1  condition not met
